System: NCI/ADR-RES ovarian
testDescription: NCI tumour cell line growth inhibition, 48 h
Classification field: label 1 = TGI at or over 20 µM; label 0 = TGI under 20 µM.

structure=C/C(CC(C)(C)N1CC1)=N\NC(=O)Nc1cccc2ccccc12 classassignment="label 1"
structure=O=C1/C(=C/C=C/c2ccccc2)N=C(c2ccccc2)N1c1ccc(S(=O)(=O)Nc2nccs2)cc1 classassignment="label 1"
structure=S=C1SCN(Cc2ccccc2)CN1Cc1ccccc1 classassignment="label 1"
structure=CN(C)/C=C/c1c2c(nc3ccccc13)C(=O)c1cccnc1C2=O classassignment="label 0"
structure=CCOC(=O)c1c2c(n3ccc(NC(=O)CCN4CCCCC4)cc13)C(=O)c1ncccc1C2=O classassignment="label 0"
structure=O=C1/C(=C/c2ccccc2)CCc2ccc([N+](=O)[O-])cc21 classassignment="label 1"
structure=COc1cc2c(cc1O)c(=O)n(CCN(C)C)c1c3cc4c(cc3ncc21)OCO4 classassignment="label 0"
structure=CNC(=O)N1CN(c2ccccc2)C2(CCN(Cc3ccccc3)CC2)C1=O classassignment="label 1"
structure=CCc1[nH]nc(C(N)=O)c1N=NN(C)C classassignment="label 1"
structure=COc1ccccc1/C=N/Nc1nnc2c3ccccc3c3ncccc3c2n1 classassignment="label 1"
structure=O=C(CCCC(=O)N/N=C/c1cc(Cl)ccc1O)N/N=C\c1cc(Cl)ccc1O classassignment="label 1"

Where these numbers come from: PubChem BioAssay (NCI)
